Target protein (sequence): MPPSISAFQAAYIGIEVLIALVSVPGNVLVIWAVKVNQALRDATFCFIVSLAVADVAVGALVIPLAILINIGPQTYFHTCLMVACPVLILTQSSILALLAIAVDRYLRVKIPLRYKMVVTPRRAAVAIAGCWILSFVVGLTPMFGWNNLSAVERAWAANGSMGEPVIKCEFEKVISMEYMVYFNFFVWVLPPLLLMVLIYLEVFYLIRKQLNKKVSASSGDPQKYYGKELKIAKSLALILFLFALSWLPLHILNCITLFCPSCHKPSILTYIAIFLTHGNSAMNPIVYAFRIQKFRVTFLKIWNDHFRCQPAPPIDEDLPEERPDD
measurementLabel: pKi
Give bare numbers, as −log10 of the molar value.

Go through the list and state pKi for each entry.
1. CCS(=O)(=O)Nc1cccc(C(=O)Nc2nc3ccccc3[nH]2)c1
2. Cn1nnnc1SCC(=O)Nc1nc(-c2cccs2)cs1
3. O=C(Nc1nc(-c2cccc(F)c2)cs1)c1ccc2[nH]nnc2c1

1. 6.01
2. 5.46
3. 5.91
